In what follows, each item is paired with its ΔTm for Serine/threonine-protein kinase 16 (Homo sapiens) (UniProt O75716).
Endpoint: ΔTm

                            smiles_notation  endpoint   result
0         N=C(N)NCCNS(=O)(=O)c1cccc2cnccc12       ΔTm   0.3 °C
1    COc1ccc(Cl)cc1NC(=O)Nc1cc(C)nc2ccccc12       ΔTm   0.4 °C
2               Cc1cc2ncc(-c3ccccc3)nc2cc1C       ΔTm   0.5 °C
3     COc1ccc2c(c1)/C(=C/c1cnc[nH]1)C(=O)N2       ΔTm   4.4 °C
4  NC(=O)c1ccc2[nH]c(-c3ccc(Oc4ccc(Cl)cc4)cc3)nc2c1       ΔTm   4.7 °C
5       Cc1ccc(NC2=CC(=O)c3sc(C)nc3C2=O)cc1       ΔTm  -1.2 °C
